experiment: pKa of Compound A; format: physicochemical; conditions: weakly basic
measured_property: pKa
In your answer, state the number alone without any accompanying words.

Exam item: Requested field: pKa. Item: O=C(Nc1ccc(Cl)c(Cl)c1)[C@@H]1[C@@H](c2ccncc2)[C@@H]2CC[C@H]1O2
Marked response: 5.2
